For each entry below, report its IC50 value.
# systemUnderTest: nSMase2 (Homo sapiens)
# Sequence (Q9NY59 whole entry): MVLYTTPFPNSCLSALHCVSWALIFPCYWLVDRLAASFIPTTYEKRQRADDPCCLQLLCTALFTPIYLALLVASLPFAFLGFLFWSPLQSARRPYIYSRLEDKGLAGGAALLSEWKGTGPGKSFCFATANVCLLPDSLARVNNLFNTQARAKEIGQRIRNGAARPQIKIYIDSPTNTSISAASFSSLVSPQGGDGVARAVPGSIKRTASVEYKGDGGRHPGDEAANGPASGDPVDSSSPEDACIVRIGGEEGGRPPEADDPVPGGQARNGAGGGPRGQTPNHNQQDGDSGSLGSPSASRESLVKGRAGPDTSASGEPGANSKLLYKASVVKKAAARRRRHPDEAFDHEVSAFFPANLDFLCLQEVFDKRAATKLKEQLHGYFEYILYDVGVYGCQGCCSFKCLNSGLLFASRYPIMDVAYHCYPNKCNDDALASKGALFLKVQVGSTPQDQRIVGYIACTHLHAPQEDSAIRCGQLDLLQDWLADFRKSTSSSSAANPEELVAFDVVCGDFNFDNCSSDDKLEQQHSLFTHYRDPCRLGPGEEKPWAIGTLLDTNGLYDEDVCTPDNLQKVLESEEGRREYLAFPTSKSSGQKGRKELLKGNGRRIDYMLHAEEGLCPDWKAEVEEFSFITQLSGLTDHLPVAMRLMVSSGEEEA
# protocolSummary: Inhibition of nSMase2 (IC50)
# Format: biochemical
# experimentalParameters: Table 2, Inhibition of nSMase
Counter-ions that a name gives are not always drawn.
Give bare numbers, in nM.

Example entries begin here.
compound="COc1cc(-c2nc(-c3ccc(C)cc3)c[nH]2)cc(OC)c1O [Compound 29]" experimentalresult=100
compound="COc1cc(-c2ncc(-c3ccc(Br)cc3)[nH]2)cc(OC)c1O [Compound 26]" experimentalresult=200
compound="CC(C)Oc1cc(-c2nc(-c3ccccc3)c(-c3cccs3)[nH]2)cc(OC(C)C)c1O [Compound 22]" experimentalresult=30
compound="CCc1nc(-c2cc(OC)c(O)c(OC)c2)[nH]c1-c1ccccn1 [Compound 40, hydrochloride]" experimentalresult=500
compound="COc1cc(-c2nc(C)c(C)[nH]2)cc(OC)c1O [Compound 19, hydrochloride]" experimentalresult=500
compound="COc1cc(-c2nc3cccnc3[nH]2)cc(OC)c1O [Compound 43]" experimentalresult=4000
compound="COc1cc(-c2nc(-c3cccs3)c(C)[nH]2)cc(OC)c1O [Compound 41, hydrochloride]" experimentalresult=10

Lab note: next compound to report on.
// COc1cc(-c2ncc(-c3ccccc3)[nH]2)cc(OC)c1O [Compound 23, hydrochloride] : IC50 value = 70
